assay: Cytotoxicity against human HepG2 cells assessed as cell growth at 20 uM measured after 72 hrs by cellTiter 96 AQueous non-radioactive cell proliferation assay relative to control
Assay type: cell-based
condition.info: read-out: Activity
endpoint.name: viability at 72 h, 20 µM (%)

smiles_data=N#Cc1ccnc(Oc2nn([C@H]3C[C@H](F)C3)c3ncnc(N)c23)c1 observed_measurement=101
smiles_data=Nc1ncnc2c1c(Oc1cc(C(F)(F)F)ccn1)nn2[C@@H]1CCCC[C@H]1O observed_measurement=99
smiles_data=Nc1ncnc2c1c(Oc1cc(C(F)(F)F)ccn1)nn2C1CC1 observed_measurement=104

----------
target: Proto-oncogene tyrosine-protein kinase Src (Homo sapiens, UniProt P12931)
Sequence (P12931 2-536 limits assumed): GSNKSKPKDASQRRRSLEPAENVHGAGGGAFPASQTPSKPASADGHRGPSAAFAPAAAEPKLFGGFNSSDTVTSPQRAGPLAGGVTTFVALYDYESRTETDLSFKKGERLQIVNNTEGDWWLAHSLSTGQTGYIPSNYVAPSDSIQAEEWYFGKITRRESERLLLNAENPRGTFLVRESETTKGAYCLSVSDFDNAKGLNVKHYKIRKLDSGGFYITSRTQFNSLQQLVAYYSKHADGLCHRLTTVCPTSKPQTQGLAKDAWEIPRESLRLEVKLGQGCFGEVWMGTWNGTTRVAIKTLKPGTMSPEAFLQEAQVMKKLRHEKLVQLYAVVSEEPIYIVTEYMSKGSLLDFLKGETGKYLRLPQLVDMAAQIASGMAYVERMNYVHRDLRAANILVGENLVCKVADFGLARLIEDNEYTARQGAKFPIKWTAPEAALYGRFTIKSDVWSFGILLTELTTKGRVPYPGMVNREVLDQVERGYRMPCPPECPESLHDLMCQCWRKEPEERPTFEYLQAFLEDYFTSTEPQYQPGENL
pIC50: −log10 of the molar value.
endpoint.name: pIC50

smiles_data=N#Cc1ccnc(Oc2nn([C@H]3C[C@H](F)C3)c3ncnc(N)c23)c1 target="Proto-oncogene tyrosine-protein kinase Src (Homo sapiens, UniProt P12931)" observed_measurement="< 4.70"
smiles_data=Nc1ncnc2c1c(Oc1cc(C(F)(F)F)ccn1)nn2[C@@H]1CCCC[C@H]1O target="Proto-oncogene tyrosine-protein kinase Src (Homo sapiens, UniProt P12931)" observed_measurement="< 4.70"
smiles_data=Nc1ncnc2c1c(Oc1cc(C(F)(F)F)ccn1)nn2C1CC1 target="Proto-oncogene tyrosine-protein kinase Src (Homo sapiens, UniProt P12931)" observed_measurement="< 4.70"

----------
assay: Protein binding in mouse brain assessed as unbound fraction
Format: ADME, tissue-based
Reported fraction unbound values for the following compounds.
endpoint.name: fraction unbound

smiles_data=Nc1ncnc2c1c(Oc1cc(C(F)(F)F)ccn1)nn2C1CC1 observed_measurement=0.101
smiles_data=Nc1ncnc2c1c(Oc1cc(C(F)(F)F)ccn1)nn2[C@@H]1CCCC[C@H]1O observed_measurement=0.041

----------
viability at 72 h: recorded values
assay: Cytotoxicity against HFF monolayers assessed as cell growth measured after 72 hrs by luciferase reporter gene assay relative to control
Assay type: cell-based
condition.info: human, read-out: Activity
endpoint.name: viability at 72 h

smiles_data=Nc1ncnc2c1c(Oc1cc(C(F)(F)F)ccn1)nn2C1CC1 observed_measurement=106%
smiles_data=Nc1ncnc2c1c(Oc1cc(C(F)(F)F)ccn1)nn2[C@@H]1CCCC[C@H]1O observed_measurement=107%
smiles_data=CO[C@@]12[C@H](COC(N)=O)C3=C(C(=O)C(C)=C(N)C3=O)N1C[C@@H]1N[C@@H]12 observed_measurement=25.8%
smiles_data=N#Cc1ccnc(Oc2nn([C@H]3C[C@H](F)C3)c3ncnc(N)c23)c1 observed_measurement=112%

----------
assay: Half life in human liver microsomes at 10 uM preincubated for 10 mins followed by NADPH addition by LC-MS/MS analysis
Assay type: ADME, Microsome
condition.info: liver microsomes
endpoint.name: half-life at 10 µM

compound=CO[C@H]1CC[C@H](n2nc(Oc3cc(C(F)(F)F)ccn3)c3c(N)ncnc32)CC1 observed_measurement="> 145 min"
compound=N#Cc1ccnc(Oc2nn([C@H]3C[C@H](F)C3)c3ncnc(N)c23)c1 observed_measurement="> 145 min"
compound="Nc1ncnc2c1c(Oc1cc(C(F)(F)F)ccn1)nn2C1CCC(O)C1 (configuration not stated)" observed_measurement="> 145 min"
compound=Nc1ncnc2c1c(Oc1cc(O)ccn1)nn2C1CCC(F)(F)CC1 observed_measurement="> 145 min"
compound=CC(C)(C)n1nc(Oc2cc(C#N)ccn2)c2c(N)ncnc21 observed_measurement="> 145 min"
compound=Nc1ncnc2c1c(Oc1cc(Cl)ccn1)nn2C1CCC(F)(F)CC1 observed_measurement="> 145 min"
compound=Nc1ncnc2c1c(Oc1cc(C(F)(F)F)ccn1)nn2[C@H]1CC[C@H](O)CC1 observed_measurement="> 145 min"
compound=Nc1ncnc2c1c(Oc1cc(C(F)(F)F)ccn1)nn2[C@@H]1CC[C@H](N)C1 observed_measurement="> 145 min"
compound=Nc1ncnc2c1c(Oc1cc(C(F)(F)F)ccn1)nn2[C@@H]1CCCC[C@H]1O observed_measurement="> 145 min"
compound=N#Cc1ccnc(Oc2nn(C3CC3)c3ncnc(N)c23)c1 observed_measurement="> 145 min"
compound=N#Cc1ccnc(Oc2nn([C@H]3C[C@H](O)C3)c3ncnc(N)c23)c1 observed_measurement="> 145 min"
compound=Nc1ncnc2c1c(Oc1cc(Cl)ccn1)nn2[C@H]1C[C@H](O)C1 observed_measurement="> 145 min"
compound=N#Cc1ccnc(Oc2nn([C@H]3C[C@@H](O)C3)c3ncnc(N)c23)c1 observed_measurement="> 145 min"
compound=Nc1ncnc2c1c(Oc1cc(C(F)(F)F)ccn1)nn2C1CC1 observed_measurement="> 145 min"
compound=Nc1ncnc2c1c(Oc1cc(C(F)(F)F)ccn1)nn2[C@H]1C[C@@H](O)C1 observed_measurement="> 145 min"
compound=Nc1ncnc2c1c(Oc1cc(C(F)(F)F)ccn1)nn2[C@H]1CC[C@@H](O)CC1 observed_measurement="> 145 min"
compound="CN(C)C1CCC(n2nc(Oc3cc(C(F)(F)F)ccn3)c3c(N)ncnc32)CC1 (configuration not stated)" observed_measurement="> 145 min"
compound=Nc1ncnc2c1c(Oc1cc(C(F)(F)F)ccn1)nn2[C@H]1CC[C@H](CO)CC1 observed_measurement="> 145 min"
compound=Nc1ncnc2c1c(Oc1cc(C(F)(F)F)ccn1)nn2[C@H]1C[C@H](O)C1 observed_measurement="> 145 min"
compound=Nc1ncnc2c1c(Oc1cc(Cl)ccn1)nn2[C@H]1C[C@@H](O)C1 observed_measurement="> 145 min"
compound=Nc1ncnc2c1c(Oc1cc(C(F)(F)F)ccn1)nn2C1CCC(F)(F)CC1 observed_measurement="> 145 min"
compound=Nc1ncnc2c1c(Oc1cc(C(F)(F)F)ccn1)nn2[C@H]1CC[C@@H](N)CC1 observed_measurement="> 145 min"

----------
assay: Half life in mouse liver microsomes at 10 uM preincubated for 10 mins followed by NADPH addition by LC-MS/MS analysis
Type: ADME, Microsome
condition.info: microsomes, 10 µM
Note to self: t1/2 under 20 min means Criterion met, ties and anything higher get Criterion not met.

compound=Nc1ncnc2c1c(Oc1cc(Cl)ccn1)nn2CC1CC1 qualitative_label="Criterion met"
compound=Nc1ncnc2c1c(Oc1cc(C(F)(F)F)ccn1)nn2[C@H]1CC[C@H](O)CC1 qualitative_label="Criterion not met"
compound=CC(C)(C)n1nc(Oc2cc(C#N)ccn2)c2c(N)ncnc21 qualitative_label="Criterion not met"
compound=Nc1ncnc2c1c(Oc1cc(C(F)(F)F)ccn1)nn2[C@H]1CC[C@@H](CO)CC1 qualitative_label="Criterion met"
compound=Nc1ncnc2c1c(Oc1cc(Cl)ccn1)nn2[C@H]1C[C@H](O)C1 qualitative_label="Criterion not met"
compound="Nc1ncnc2c1c(Oc1cc(C(F)(F)F)ccn1)nn2C1CCC(O)C1 (stereo unspecified)" qualitative_label="Criterion met"
compound=Nc1ncnc2c1c(Oc1cc(O)ccn1)nn2C1CCC(F)(F)CC1 qualitative_label="Criterion not met"
compound=Nc1ncnc2c1c(Oc1cc(C(F)(F)F)ccn1)nn2[C@H]1C[C@H](F)C1 qualitative_label="Criterion not met"
compound=Nc1ncnc2c1c(Oc1cc(Cl)ccn1)nn2C1CCC1 qualitative_label="Criterion met"
compound=N#Cc1ccnc(Oc2nn(C3CCC3)c3ncnc(N)c23)c1 qualitative_label="Criterion not met"
compound=Nc1ncnc2c1c(Oc1cc(Cl)ccn1)nn2[C@H]1C[C@H](F)C1 qualitative_label="Criterion met"
compound=Nc1ncnc2c1c(Oc1cc(C(F)(F)F)ccn1)nn2C1CCC1 qualitative_label="Criterion met"
compound=Nc1ncnc2c1c(Oc1cc(O)ccn1)nn2[C@H]1C[C@H](F)C1 qualitative_label="Criterion met"
compound=Cc1cccc(Oc2nn(C(C)(C)C)c3ncnc(N)c23)c1 qualitative_label="Criterion met"
compound=Nc1ncnc2c1c(Oc1cccc(C(F)(F)F)c1)nn2[C@H]1C[C@H](O)C1 qualitative_label="Criterion not met"
compound=Nc1ncnc2c1c(Oc1cc(C(F)(F)F)ccn1)nn2[C@H]1CC[C@@H](O)CC1 qualitative_label="Criterion not met"
compound=Nc1ncnc2c1c(Oc1cc(C(F)(F)F)ccn1)nn2[C@@H]1CCCC[C@H]1O qualitative_label="Criterion not met"
compound=Nc1ncnc2c1c(Oc1cc(Cl)ccn1)nn2C1CC1 qualitative_label="Criterion met"
compound=Nc1ncnc2c1c(Oc1cc(Cl)ccn1)nn2C1CCC(F)(F)CC1 qualitative_label="Criterion not met"
compound=CO[C@H]1CC[C@H](n2nc(Oc3cc(C(F)(F)F)ccn3)c3c(N)ncnc32)CC1 qualitative_label="Criterion met"
compound=CO[C@H]1CC[C@@H](n2nc(Oc3cc(C(F)(F)F)ccn3)c3c(N)ncnc32)CC1 qualitative_label="Criterion met"
compound=Nc1ncnc2c1c(Oc1cc(C(F)(F)F)ccn1)nn2[C@H]1C[C@H](O)C1 qualitative_label="Criterion not met"
compound=Nc1ncnc2c1c(Oc1cc(C(F)(F)F)ccn1)nn2[C@H]1CC[C@@H](N)CC1 qualitative_label="Criterion not met"
compound=Nc1ncnc2c1c(Oc1cc(Cl)ccn1)nn2[C@H]1C[C@@H](O)C1 qualitative_label="Criterion not met"
compound="CN(C)C1CCC(n2nc(Oc3cc(C(F)(F)F)ccn3)c3c(N)ncnc32)CC1 (stereo unspecified)" qualitative_label="Criterion met"
compound=Nc1ncnc2c1c(Oc1cc(C(F)(F)F)ccn1)nn2[C@H]1CC[C@H](CO)CC1 qualitative_label="Criterion not met"
compound=CC(C)(C)n1nc(Oc2cc(O)ccn2)c2c(N)ncnc21 qualitative_label="Criterion not met"
compound=Nc1ncnc2c1c(Oc1cc(C(F)(F)F)ccn1)nn2[C@@H]1CC[C@H](N)C1 qualitative_label="Criterion not met"
compound=Nc1ncnc2c1c(Oc1cccc(Cl)c1)nn2[C@H]1C[C@H](F)C1 qualitative_label="Criterion met"
compound=Nc1ncnc2c1c(Oc1cc(C(F)(F)F)ccn1)nn2[C@H]1C[C@@H](O)C1 qualitative_label="Criterion not met"
compound=Nc1ncnc2c1c(Oc1cc(C(F)(F)F)ccn1)nn2C1CCC(F)(F)CC1 qualitative_label="Criterion not met"
